Tested on: 494315-158-R-J1-PDC complex spheroid growth, percent test/control
test.description: Anticancer human tumor 494315-158-R-J1-PDC patient-derived soft tissue sarcoma cell line growth inhibition [Asc]
condition.info: curve of first compound; second compound 0.03 µM
Entries and their IC50

Observe how each entry below is paired with its result.
molecule: Cn1ncnc1[C@H]1c2n[nH]c(=O)c3cc(F)cc(c23)N[C@@H]1c1ccc(F)cc1 + CCN1C(C(=O)NC23CCC(C(=O)O)(CC2)CC3)C(c2cccc(Cl)c2F)C2(C(=O)Nc3cc(Cl)ccc32)C12CCCCC2
IC50: > 100 nM
--
molecule: O=C(c1ccc(F)c(F)c1Nc1ccc(I)cc1F)N1CC(O)([C@@H]2CCCCN2)C1 + CCN1C(C(=O)NC23CCC(C(=O)O)(CC2)CC3)C(c2cccc(Cl)c2F)C2(C(=O)Nc3cc(Cl)ccc32)C12CCCCC2
IC50: > 1000 nM
--
molecule: C=CC(=O)N1CCN(c2nc(=O)n(-c3c(C)ccnc3C(C)C)c3nc(-c4c(O)cccc4F)c(F)cc23)C(C)C1 (stereo unspecified) + CCN1C(C(=O)NC23CCC(C(=O)O)(CC2)CC3)C(c2cccc(Cl)c2F)C2(C(=O)Nc3cc(Cl)ccc32)C12CCCCC2
IC50: > 10000 nM
--
molecule: NC1CCC(NC2CC2c2ccccc2)CC1 (stereo unspecified) + CCN1C(C(=O)NC23CCC(C(=O)O)(CC2)CC3)C(c2cccc(Cl)c2F)C2(C(=O)Nc3cc(Cl)ccc32)C12CCCCC2
IC50: > 100 nM
--
molecule: O=C(c1cc(Cc2n[nH]c(=O)c3ccccc23)ccc1F)N1CCN(C(=O)C2CC2)CC1 + CCN1C(C(=O)NC23CCC(C(=O)O)(CC2)CC3)C(c2cccc(Cl)c2F)C2(C(=O)Nc3cc(Cl)ccc32)C12CCCCC2
IC50: > 10000 nM

Next molecule, IC50 to be filled in.
Enquiry: Please give the measured IC50 for this molecule: NC(=O)C(=Cn1cnc(-c2cc(C(F)(F)F)cc(C(F)(F)F)c2)n1)c1cncnc1 + CCN1C(C(=O)NC23CCC(C(=O)O)(CC2)CC3)C(c2cccc(Cl)c2F)C2(C(=O)Nc3cc(Cl)ccc32)C12CCCCC2
Return: 72.6 nM

###

Tested on: 494315-158-R-J1-PDC complex spheroid growth, percent test/control
test.description: Anticancer human tumor 494315-158-R-J1-PDC cell line growth inhibition [Asc];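 also: compound exposure lasted seven days after spheroids formed for three days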
condition.info: second compound 0.316 µM; first compound 0.316 µM; stronger effect = lower value
Items are presented alongside their recorded viability, T/C.
Express the result in % but write the number alone.

Example results:
compound: CCN1CCN(Cc2ccc(Nc3ncc(F)c(-c4cc(F)c5nc(C)n(C(C)C)c5c4)n3)nc2)CC1 + CNC(C)C(=O)NC1CN(S(=O)(=O)c2cccc(S(=O)(=O)N3CCC4CCC(C(=O)NC(c5ccccc5)c5ccccc5)N4C(=O)C(NC(=O)C(C)NC)C3)c2)CCC2CCC(C(=O)NC(c3ccccc3)c3ccccc3)N2C1=O
value.observed: 51.3
//
compound: C=C(F)C(=O)N1CCN(c2nc(OCC3CCCN3C)nc3c2CCN(c2cccc4cccc(Cl)c24)C3)CC1CC#N (stereo not drawn) + CNC(C)C(=O)NC1CN(S(=O)(=O)c2cccc(S(=O)(=O)N3CCC4CCC(C(=O)NC(c5ccccc5)c5ccccc5)N4C(=O)C(NC(=O)C(C)NC)C3)c2)CCC2CCC(C(=O)NC(c3ccccc3)c3ccccc3)N2C1=O
value.observed: 38.8

Enquiry: Which value of viability, T/C has been reported for CNC(C)C(=O)NC1CN(S(=O)(=O)c2cccc(S(=O)(=O)N3CCC4CCC(C(=O)NC(c5ccccc5)c5ccccc5)N4C(=O)C(NC(=O)C(C)NC)C3)c2)CCC2CCC(C(=O)NC(c3ccccc3)c3ccccc3)N2C1=O (stereo not drawn) + Cc1c(S(C)(=O)=O)c(-c2cc(F)cc(N3CCN(c4ccc(NS(=O)(=O)c5ccc(NC(CCN6CCC(C(=O)OCCCP(=O)(O)O)CC6)CSc6ccccc6)c(S(=O)(=O)C(F)(F)F)c5)cc4)CC3)c2)c(-c2ccc(Cl)cc2)n1C(C)C in the records?
Return: 26

###

System: 494315-158-R-J1-PDC complex spheroid growth, percent test/control
test.description: Anticancer human tumor 494315-158-R-J1-PDC cell line growth inhibition [Asc];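 also: compound exposure lasted seven days after spheroids formed for three days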
condition.info: curve of first compound; second compound 0.03 µM
property.name: pIC50
// field semantics: pIC50 = negative decimal log of concentration (mol/L)

Enquiry: Consider the molecule shown here: C=C(F)C(=O)N1CCN(c2nc(OCC3CCCN3C)nc3c2CCN(c2cccc4cccc(Cl)c24)C3)CC1CC#N (configuration not stated) + CCN1C(C(=O)NC23CCC(C(=O)O)(CC2)CC3)C(c2cccc(Cl)c2F)C2(C(=O)Nc3cc(Cl)ccc32)C12CCCCC2 What is its recorded pIC50?
Return: 5.38

###

Test system: 494315-158-R-J1-PDC complex spheroid growth, percent test/control
test.description: Anticancer human tumor 494315-158-R-J1-PDC cell line growth inhibition [Asc];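 also: compound exposure lasted seven days after spheroids formed for three days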
condition.info: second compound 0.03 µM; first compound 0.0316 µM; stronger effect = lower value
From the text: Multicellular complex tumor spheroid response to apoptosis pathway targeting inhibitors Alrizomadlin, Pelcitoclax, and Dasminapant in combination with a variety of drugs and investigational agents in selected tumor cell lines […] Compounds. […] If the clinical Cmax for an agent had not been determined, the highest concentration tested was 10 microM. […]
property.name: viability, T/C (%)
Respond numerically; units are % and should not be typed.

Worked examples, 2 compounds total:
compound: COc1c(OCCCN2CCOCC2)ccc2c3n(c(=NC(=O)c4cnc(N)nc4)nc12)CCN3 + CCN1C(C(=O)NC23CCC(C(=O)O)(CC2)CC3)C(c2cccc(Cl)c2F)C2(C(=O)Nc3cc(Cl)ccc32)C12CCCCC2
viability, T/C (%): 58.5
//
compound: Cn1ncnc1[C@H]1c2n[nH]c(=O)c3cc(F)cc(c23)N[C@@H]1c1ccc(F)cc1 + CCN1C(C(=O)NC23CCC(C(=O)O)(CC2)CC3)C(c2cccc(Cl)c2F)C2(C(=O)Nc3cc(Cl)ccc32)C12CCCCC2
viability, T/C (%): 76.3

Enquiry: Requested read-out: viability, T/C. Entry: O=C(c1cc(Cc2n[nH]c(=O)c3ccccc23)ccc1F)N1CCN(C(=O)C2CC2)CC1 + CCN1C(C(=O)NC23CCC(C(=O)O)(CC2)CC3)C(c2cccc(Cl)c2F)C2(C(=O)Nc3cc(Cl)ccc32)C12CCCCC2
Return: 97.3

###

Parameter: IC50. Scope: all listed entries.
System: 494315-158-R-J1-PDC complex spheroid growth, percent test/control
test.description: Anticancer human tumor 494315-158-R-J1-PDC cell line growth inhibition [Asc];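 also: compound exposure lasted seven days after spheroids formed for three days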
condition.info: curve of first compound; second compound 0.949 µM
Description: Multicellular complex tumor spheroid response to apoptosis pathway targeting inhibitors Alrizomadlin, Pelcitoclax, and Dasminapant in combination with a variety of drugs and investigational agents in selected tumor cell lines […] Compounds. […] If the clinical Cmax for an agent had not been determined, the highest concentration tested was 10 microM. […]
Supply the numeric figure in nM, leaving out any unit text.

compound: Cc1nc(N2CCC3(CC2)COC(C)C3N)c(CO)nc1Sc1ccnc(N)c1Cl (stereo not drawn) + CCN1C(C(=O)NC23CCC(C(=O)O)(CC2)CC3)C(c2cccc(Cl)c2F)C2(C(=O)Nc3cc(Cl)ccc32)C12CCCCC2
IC50 (nM): 601
//
compound: NC(=O)C(=Cn1cnc(-c2cc(C(F)(F)F)cc(C(F)(F)F)c2)n1)c1cncnc1 + CCN1C(C(=O)NC23CCC(C(=O)O)(CC2)CC3)C(c2cccc(Cl)c2F)C2(C(=O)Nc3cc(Cl)ccc32)C12CCCCC2
IC50 (nM): 74.9
//
compound: COc1c(OCCCN2CCOCC2)ccc2c3n(c(=NC(=O)c4cnc(N)nc4)nc12)CCN3 + CCN1C(C(=O)NC23CCC(C(=O)O)(CC2)CC3)C(c2cccc(Cl)c2F)C2(C(=O)Nc3cc(Cl)ccc32)C12CCCCC2
IC50 (nM): 35.6

Enquiry: Bench note: what IC50 did C=C(F)C(=O)N1CCN(c2nc(OCC3CCCN3C)nc3c2CCN(c2cccc4cccc(Cl)c24)C3)CC1CC#N (stereo not drawn) + CCN1C(C(=O)NC23CCC(C(=O)O)(CC2)CC3)C(c2cccc(Cl)c2F)C2(C(=O)Nc3cc(Cl)ccc32)C12CCCCC2 show?
Return: 4170

###

System: 494315-158-R-J1-PDC complex spheroid growth, percent test/control
test.description: Anticancer human tumor 494315-158-R-J1-PDC cell line growth inhibition [Asc];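 also: compound exposure lasted seven days after spheroids formed for three days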
condition.info: second compound 0.316 µM; first compound 0.00316 µM; stronger effect = lower value
property.name: viability, T/C (%)
Write the answer as a number in %, unit excluded.

Enquiry: Looking for the measured viability, T/C of NC1CCC(NC2CC2c2ccccc2)CC1 (stereo unspecified) + Cc1c(S(C)(=O)=O)c(-c2cc(F)cc(N3CCN(c4ccc(NS(=O)(=O)c5ccc(NC(CCN6CCC(C(=O)OCCCP(=O)(O)O)CC6)CSc6ccccc6)c(S(=O)(=O)C(F)(F)F)c5)cc4)CC3)c2)c(-c2ccc(Cl)cc2)n1C(C)C , can you help?
Return: 61

These data points were gathered from PubChem BioAssay AID1963420.
